target: human ACC2 (Nd) (Homo sapiens, UniProt O00763); construct: His6 (from vector pFAST-BacHTa); made in house; host or cells: SF-9 insect cells, recombinant baculovirus BAC-ACC2 (Nd); assay: ACC2 inhibitory activity (malachite green); type: biochemical; settings: test compound 10 μM; read-out: ACC2 10 μM inhibitory rate (%)
Sequence (O00763 117-2458 limits assumed): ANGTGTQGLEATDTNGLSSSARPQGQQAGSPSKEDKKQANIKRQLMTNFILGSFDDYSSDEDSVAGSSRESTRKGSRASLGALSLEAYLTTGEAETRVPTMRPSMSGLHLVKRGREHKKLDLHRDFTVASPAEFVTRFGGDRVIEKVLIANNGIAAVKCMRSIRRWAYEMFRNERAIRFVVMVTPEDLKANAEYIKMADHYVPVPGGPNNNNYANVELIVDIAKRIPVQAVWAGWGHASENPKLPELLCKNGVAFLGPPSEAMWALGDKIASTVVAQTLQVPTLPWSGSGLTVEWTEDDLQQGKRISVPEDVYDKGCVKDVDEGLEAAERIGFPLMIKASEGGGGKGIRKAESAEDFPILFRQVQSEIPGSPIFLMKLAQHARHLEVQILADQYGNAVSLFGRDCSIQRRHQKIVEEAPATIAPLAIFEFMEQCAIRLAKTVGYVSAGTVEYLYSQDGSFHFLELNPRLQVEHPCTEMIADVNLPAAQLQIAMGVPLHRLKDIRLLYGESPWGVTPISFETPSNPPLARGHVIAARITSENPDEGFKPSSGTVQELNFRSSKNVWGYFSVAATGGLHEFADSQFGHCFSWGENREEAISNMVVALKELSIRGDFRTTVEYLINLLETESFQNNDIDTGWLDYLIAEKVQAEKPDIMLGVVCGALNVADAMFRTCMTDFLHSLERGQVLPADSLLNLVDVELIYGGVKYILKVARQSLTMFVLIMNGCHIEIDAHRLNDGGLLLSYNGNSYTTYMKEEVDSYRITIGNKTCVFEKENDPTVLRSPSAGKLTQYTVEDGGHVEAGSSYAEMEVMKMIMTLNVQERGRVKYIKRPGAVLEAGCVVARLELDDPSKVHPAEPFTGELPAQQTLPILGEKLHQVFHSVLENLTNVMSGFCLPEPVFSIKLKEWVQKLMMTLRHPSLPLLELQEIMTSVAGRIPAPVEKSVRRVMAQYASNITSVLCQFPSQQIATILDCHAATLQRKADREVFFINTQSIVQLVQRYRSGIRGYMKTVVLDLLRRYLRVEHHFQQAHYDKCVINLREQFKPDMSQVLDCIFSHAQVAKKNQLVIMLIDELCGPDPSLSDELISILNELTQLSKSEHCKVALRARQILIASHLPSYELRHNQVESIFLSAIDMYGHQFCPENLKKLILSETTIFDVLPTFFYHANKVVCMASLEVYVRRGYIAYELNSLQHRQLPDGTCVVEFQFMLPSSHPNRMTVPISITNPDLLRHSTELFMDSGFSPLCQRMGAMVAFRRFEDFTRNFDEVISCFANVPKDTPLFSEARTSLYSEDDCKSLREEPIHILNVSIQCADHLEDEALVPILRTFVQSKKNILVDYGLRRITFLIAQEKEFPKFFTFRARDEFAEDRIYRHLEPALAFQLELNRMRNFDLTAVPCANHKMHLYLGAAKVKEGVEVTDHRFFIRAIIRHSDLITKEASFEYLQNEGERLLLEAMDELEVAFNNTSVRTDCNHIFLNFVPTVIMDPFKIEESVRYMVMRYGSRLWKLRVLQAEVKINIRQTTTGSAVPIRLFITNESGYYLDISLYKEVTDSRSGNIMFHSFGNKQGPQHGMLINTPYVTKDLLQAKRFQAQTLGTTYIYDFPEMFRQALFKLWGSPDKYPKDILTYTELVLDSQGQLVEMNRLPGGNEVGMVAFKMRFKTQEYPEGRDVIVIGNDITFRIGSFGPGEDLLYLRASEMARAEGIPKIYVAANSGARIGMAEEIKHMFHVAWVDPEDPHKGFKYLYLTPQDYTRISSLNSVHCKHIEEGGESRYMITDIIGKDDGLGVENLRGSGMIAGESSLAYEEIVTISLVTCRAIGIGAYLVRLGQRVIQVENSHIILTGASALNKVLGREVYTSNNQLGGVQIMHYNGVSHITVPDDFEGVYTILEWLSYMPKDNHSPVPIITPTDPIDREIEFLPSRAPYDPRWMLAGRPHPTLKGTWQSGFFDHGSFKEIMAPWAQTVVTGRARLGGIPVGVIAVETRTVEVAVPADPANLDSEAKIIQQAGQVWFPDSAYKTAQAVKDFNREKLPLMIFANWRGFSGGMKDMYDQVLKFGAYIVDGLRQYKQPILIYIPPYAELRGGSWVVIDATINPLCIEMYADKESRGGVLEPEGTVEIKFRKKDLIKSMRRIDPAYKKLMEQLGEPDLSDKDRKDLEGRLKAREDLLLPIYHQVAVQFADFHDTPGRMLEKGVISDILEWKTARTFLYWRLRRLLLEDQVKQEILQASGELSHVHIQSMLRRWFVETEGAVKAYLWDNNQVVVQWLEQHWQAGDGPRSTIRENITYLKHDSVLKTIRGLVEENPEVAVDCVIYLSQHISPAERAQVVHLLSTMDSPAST
Parameter: inhibition at 10 µM. Scope: all listed entries.
MEASURED ENDPOINT: inhibition at 10 µM

>  <COMPOUND>
CCOc1ccc(CCc2ccc3cc(C(C)NC(C)=O)oc3n2)cc1 (stereo not shown)

>  <MEASURED ENDPOINT>
inhibition at 10 µM

>  <RECORDED VALUE>
78%

$$$$
>  <COMPOUND>
CC(=O)NC(C)c1cc2cc(OCc3ccc(OCC4CC4)cc3Cl)ccc2o1 (stereo not shown) [Example 134 (retention time longer)]

>  <MEASURED ENDPOINT>
inhibition at 10 µM

>  <RECORDED VALUE>
55%

$$$$
>  <COMPOUND>
CCOc1ccc(CCc2ccc3cc(C(C)Nc4ccon4)oc3c2)cc1 (stereo not shown)

>  <MEASURED ENDPOINT>
inhibition at 10 µM

>  <RECORDED VALUE>
81%

$$$$
>  <COMPOUND>
CC(=O)NC(C)c1cc2ccc(CCc3ccc4c(c3)C(C)(C)CO4)cc2o1 (stereo not shown)

>  <MEASURED ENDPOINT>
inhibition at 10 µM

>  <RECORDED VALUE>
78%

$$$$
